test system: K562; assay: Growth inhibition of human K562 cells by sulforhodamine B assay; type: functional; details: read-out: pTGI (converted)
Metric name: TGI (µM)
// note: answer is a bare numeric in µM

C/C=C(/C)C(=O)O[C@@H]1CC(C)(C)C[C@H]2C3=CC[C@@H]4[C@@]5(C)CC[C@H](O)C(C)(C)[C@@H]5CC[C@@]4(C)[C@]3(C)CC[C@@]12C(=O)O [Reduced Lantadene A]: 30.2

Now take the following compound into account.
Requested read-out: TGI. Entry: CC(C)=CC(=O)O[C@@H]1CC(C)(C)C[C@H]2C3=CC[C@@H]4[C@@]5(C)CC[C@H](O)C(C)(C)[C@@H]5CC[C@@]4(C)[C@]3(C)CC[C@@]12C(=O)O [Reduced Lantadene B]
93.3
